target: UniProt J9SQF3
assayRemarks: TRPM3 ion channel driven Ca2+ uptake, Fluo-4 AM assay, PS-stimulated (mTRPM3)
conditionDescription: TRPM3 overexpressing flip-in HEK293 cells stimulated with Pregnenolone sulfate (PS) 50 μM, activity ranges A, B, C
propertyName: IC50

Consider the reported IC50 for these molecules:
> print(dat)
                                   molecule  valuemeasured
1  Cc1oc2ccc(OCc3ccccc3)cc2c1C(=O)N1CCC(N)CC1 [Cpd 073]        > 20 µM
2  COCC(Oc1ccc2oc(C)c(C(=O)N[C@@H](CO)C(N)=O)c2c1)c1ccccc1 (single isomer, unassigned) [Cpd 346-En 2]         < 1 µM
3  Cc1oc2ccc(OCc3ccccc3F)cc2c1C(=O)N[C@@H]1COC[C@H]1O (single isomer, unassigned) [Cpd 330-En 1]         < 1 µM
4  COC(=O)C1(NC(=O)c2c(C)oc3ccc(OCc4ccccc4)cc23)CCOCC1 [Cpd 212]         < 1 µM
5  CCN1CCCN(C(=O)c2c(C)oc3ccc(OCc4ccccc4)cc23)CC1 [Cpd 149]        > 20 µM
6  Cc1oc2c(F)cc(OCc3ccccc3)cc2c1C(=O)NC1CNCC1(F)F (single isomer, unassigned) [Cpd 306-En 1]         < 1 µM

input: Using the record for Cc1oc2ccc(OCc3ccccc3)cc2c1C(=O)N1CCOCC1 [Cpd 050] , report its IC50.
output: > 20 µM

input: What do we get for Cc1oc2ccc(OCc3ccc(F)cc3Cl)cc2c1C(=O)O [Cpd 022] ?
output: 1 to 20 µM

----------
target: mouse TRPM3α2 (mTRPM3) ion channel (Mus musculus)
assayRemarks: TRPM3 ion channel driven Ca2+ uptake, Fluo-4 AM assay, PS-stimulated (mTRPM3)
conditionDescription: TRPM3 overexpressing flip-in HEK293 cells stimulated with Pregnenolone sulfate (PS) 50 μM, activity ranges A, B, C
pIC50: −log10 of the molar value.
# pIC50 per entry

Here are 5 compounds together with their reported answers.
> print(dat)
                                   compound  propertyname  valuemeasured
1  Cc1oc2ccc(OCc3ccccc3)cc2c1C(=O)NC1CCNC(C)C1 (racemic) [Cpd 115]         pIC50         > 6.00
2  Cc1oc2ccc(OCc3ccccc3)cc2c1C(=O)N1CCCC(c2nc(C(C)C)no2)C1 (stereo not drawn) [Cpd 243]         pIC50         < 4.70
3  Cc1oc2ccc(OCc3ccccc3)cc2c1C(=O)N1CCCC(C(=O)NCC(C)C)C1 (stereo not drawn) [Cpd 236]         pIC50         < 4.70
4  Cc1oc2ccc(OCc3ccccc3)cc2c1C(=O)NCC1(N(C)C)CCCC1 [Cpd 187]         pIC50         > 6.00
5  Cc1oc2ccc(OCc3ccccc3)cc2c1C(=O)NC1CCN2CCCC12 (single isomer, unassigned) [Cpd 144-Dia 1]         pIC50         > 6.00

input: # input compound: Cc1oc2ccc(OCc3ccccc3F)cc2c1C(=O)N[C@@H]1COC[C@@H]1O (single isomer, unassigned) [Cpd 329-En 2] ; wanted: its pIC50
output: > 6.00

input: // next record Cc1oc2ccc(OCc3ccccc3)cc2c1C(=O)NC1(CO)COC1 [Cpd 092]
output: > 6.00

input: Quick one: Cc1oc2ccc(OCc3ccccc3)cc2c1C(=O)NCCc1ccccc1 [Cpd 134]
output: < 4.70

----------
IC50 listing for selected compounds.
target: UniProt J9SQF3
assayRemarks: TRPM3 ion channel driven Ca2+ uptake, Fluo-4 AM assay, PS-stimulated (mTRPM3)
conditionDescription: TRPM3 overexpressing flip-in HEK293 cells stimulated with Pregnenolone sulfate (PS) 50 μM, activity ranges A, B, C

Some entries whose results are on file:
> print(dat)
                                   compound  valuemeasured
1  Cc1oc2ccc(OCc3ccccc3)cc2c1C(=O)N[C@@H]1C[C@H]2CNC[C@H]2C1         < 1 µM
2  Cc1oc2cc(F)c(OCc3ccccc3)cc2c1C(=O)NC1CNCC1(F)F (single isomer, unassigned) [Cpd 302-En 1]         < 1 µM
3  Cc1oc2ccc(OC(C)c3ccccc3C(F)(F)F)cc2c1C(=O)N[C@H]1CCN(C(=O)OC(C)(C)C)C1 (mixture of isomers)        > 20 µM

input: Short answer please: IC50, UniProt J9SQF3, entry Cc1oc2ccc(OCc3ccccc3)cc2c1C(=O)N[C@H]1CCN(S(C)(=O)=O)C1
output: < 1 µM

input: Try this compound too: Cc1oc2ccc(OCc3cccc(Cl)c3)cc2c1C(=O)O
output: 1 to 20 µM

input: Thanks! And COCCCN1CCC(NC(=O)c2c(C)oc3ccc(OCc4ccccc4)cc23)CC1 ?
output: 1 to 20 µM

input: Also Cc1oc2ccc(OC(CCN(C)C)c3ccccc3)cc2c1C(=O)NC1CCNC1=O (centres unmarked) ?
output: > 20 µM

input: Thanks! And Cc1ccccc1COc1ccc2oc(C)c(C(=O)N[C@H]3CCNC3)c2c1 ?
output: < 1 µM

----------
target: mouse TRPM3α2 (mTRPM3) ion channel (Mus musculus)
assayRemarks: TRPM3 ion channel driven Ca2+ uptake, Fluo-4 AM assay, PS-stimulated (mTRPM3)
conditionDescription: TRPM3 overexpressing flip-in HEK293 cells stimulated with Pregnenolone sulfate (PS) 50 μM, activity ranges A, B, C
Here, each record is paired with measured IC50 data.

> print(dat)
                                   compound     valuemeasured
1  Cc1oc2ccc(OCc3ccccc3)cc2c1C(=O)N[C@H]1C[C@@H]2CN(C(=O)OC(C)(C)C)C[C@@H]2C1  1000 to 20000 nM
2  Cc1oc2ccc(OCc3ccccc3C(F)(F)F)cc2c1C(=O)NC1CCNC1=O (stereo not shown)         < 1000 nM

input: # get_value(readout= IC50, system= mouse TRPM3α2 (mTRPM3) ion channel (Mus musculus)) for Cc1oc2ccc(OCc3ccccc3)c(C)c2c1C(=O)NC1CNCC1(F)F (single isomer, unassigned) [Cpd 299-En 2]
output: < 1000 nM

----------
target: mouse TRPM3α2 (mTRPM3) ion channel (Mus musculus)
assayRemarks: TRPM3 ion channel driven Ca2+ uptake, Fluo-4 AM assay, PS-stimulated (mTRPM3)
conditionDescription: TRPM3 overexpressing flip-in HEK293 cells stimulated with Pregnenolone sulfate (PS) 50 μM, activity ranges A, B, C
pIC50: −log10 of the molar value.
propertyName: pIC50

> print(dat)
                                   molecule  valuemeasured
1  Cc1oc2ccc(OCc3ccccc3F)cc2c1C(=O)NC(C)(CO)CO         > 6.00
2  Cc1oc2ccc(OCc3ccccc3)cc2c1C(=O)NC1CCN(C)CC1         > 6.00
3  Cc1oc2ccc(OCc3ccccc3)cc2c1C(=O)NC1(CO)CCN(C(=O)OC(C)(C)C)CC1   4.70 to 6.00

Query molecule follows.
input: Fill in: pIC50 of Cc1oc2ccc(OCc3ccccc3)c(C#N)c2c1C(=O)NC1CNCC1(F)F (single isomer, unassigned) [Cpd 297-En 2] is ___
output: 4.70 to 6.00

----------
# IC50 per entry
target: mouse TRPM3α2 (mTRPM3) ion channel (Mus musculus)
assayRemarks: TRPM3 ion channel driven Ca2+ uptake, Fluo-4 AM assay, PS-stimulated (mTRPM3)
conditionDescription: TRPM3 overexpressing flip-in HEK293 cells stimulated with Pregnenolone sulfate (PS) 50 μM, activity ranges A, B, C

The cases that follow already have their IC50 on record.
> print(dat)
                                   compound  valuemeasured
1      CCc1oc2ccc(OCc3cccc(F)c3)cc2c1C(=O)O     1 to 20 µM
2  Cc1oc2ccc(OCc3ccccc3)cc2c1C(=O)NC1CNCCC1F (single isomer, unassigned) [Cpd 130-Dia 2]         < 1 µM
3  Cc1oc2ccc(OCc3cccc(CNC(=O)OC(C)(C)C)c3)cc2c1C(=O)NC1CCNC1=O (stereo not shown)        > 20 µM

input: Sample Cc1cc2oc(C)c(C(=O)NC3CNCC3(F)F)c2cc1OCc1ccccc1 (single isomer, unassigned) [Cpd 303-En 2] — what was its IC50?
output: > 20 µM

----------
Reported IC50 is given for each of the following compounds.
target: mouse TRPM3α2 (mTRPM3) ion channel (Mus musculus, UniProt J9SQF3)
Sequence (J9SQF3 1-1709 isoform J9SQF3-12): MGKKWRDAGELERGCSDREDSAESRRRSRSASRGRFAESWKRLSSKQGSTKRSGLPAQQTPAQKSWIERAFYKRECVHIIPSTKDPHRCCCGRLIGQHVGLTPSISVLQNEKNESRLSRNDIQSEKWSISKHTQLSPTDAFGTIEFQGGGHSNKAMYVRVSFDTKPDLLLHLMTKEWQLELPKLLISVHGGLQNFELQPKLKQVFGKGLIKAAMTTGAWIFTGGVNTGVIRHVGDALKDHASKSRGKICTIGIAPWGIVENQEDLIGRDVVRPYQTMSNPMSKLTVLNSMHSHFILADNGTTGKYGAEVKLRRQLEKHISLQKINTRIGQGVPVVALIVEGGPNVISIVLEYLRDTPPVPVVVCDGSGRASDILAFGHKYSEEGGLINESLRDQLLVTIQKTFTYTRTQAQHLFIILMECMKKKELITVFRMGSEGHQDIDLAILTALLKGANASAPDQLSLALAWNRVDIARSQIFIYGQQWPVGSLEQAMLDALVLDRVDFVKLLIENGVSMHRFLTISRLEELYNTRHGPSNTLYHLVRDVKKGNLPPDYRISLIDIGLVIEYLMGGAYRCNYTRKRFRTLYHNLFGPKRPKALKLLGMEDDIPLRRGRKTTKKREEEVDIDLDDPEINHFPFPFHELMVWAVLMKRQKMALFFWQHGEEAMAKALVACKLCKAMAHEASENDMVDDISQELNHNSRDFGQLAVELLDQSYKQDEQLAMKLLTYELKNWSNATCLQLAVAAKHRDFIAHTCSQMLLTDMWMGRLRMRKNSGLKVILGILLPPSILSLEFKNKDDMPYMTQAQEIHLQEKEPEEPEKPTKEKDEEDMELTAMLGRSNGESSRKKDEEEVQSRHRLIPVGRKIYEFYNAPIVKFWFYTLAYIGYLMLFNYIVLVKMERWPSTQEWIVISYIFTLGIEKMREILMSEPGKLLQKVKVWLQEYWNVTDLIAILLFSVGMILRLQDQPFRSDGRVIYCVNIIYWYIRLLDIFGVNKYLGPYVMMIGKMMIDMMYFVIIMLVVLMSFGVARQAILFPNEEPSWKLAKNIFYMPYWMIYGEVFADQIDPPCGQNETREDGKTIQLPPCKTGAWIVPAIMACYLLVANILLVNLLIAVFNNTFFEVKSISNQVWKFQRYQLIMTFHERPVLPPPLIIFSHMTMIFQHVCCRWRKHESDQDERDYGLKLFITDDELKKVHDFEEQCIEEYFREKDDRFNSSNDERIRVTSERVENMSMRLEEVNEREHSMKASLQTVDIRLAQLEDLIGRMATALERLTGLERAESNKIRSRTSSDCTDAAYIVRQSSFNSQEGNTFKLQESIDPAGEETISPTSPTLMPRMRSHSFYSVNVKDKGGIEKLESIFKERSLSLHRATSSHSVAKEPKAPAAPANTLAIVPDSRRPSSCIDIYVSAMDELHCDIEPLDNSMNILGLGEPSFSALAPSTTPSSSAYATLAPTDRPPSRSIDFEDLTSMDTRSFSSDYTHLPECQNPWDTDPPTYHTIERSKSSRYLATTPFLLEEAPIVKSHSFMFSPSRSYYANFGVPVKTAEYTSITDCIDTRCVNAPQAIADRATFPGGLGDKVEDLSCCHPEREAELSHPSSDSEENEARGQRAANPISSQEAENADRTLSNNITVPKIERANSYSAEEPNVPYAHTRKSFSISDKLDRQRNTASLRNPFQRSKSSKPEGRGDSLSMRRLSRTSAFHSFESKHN
assayRemarks: TRPM3 ion channel driven Ca2+ uptake, Fluo-4 AM assay, PS-stimulated (mTRPM3)
conditionDescription: TRPM3 overexpressing flip-in HEK293 cells stimulated with Pregnenolone sulfate (PS) 50 μM, activity ranges A, B, C
Method: Monitoring the TRPM3 Ion Channel Driven Ca^2+ Uptake. […] For mTRPM3, the intracellular Ca^2+ was measured with a Calcium responsive dye, Fluor-4 AM ester (Invitrogen). […] Channel inhibition was calculated compared to a non-PS stimulated control versus a condition stimulated with PS (50 μM) with vehicle. […]

input: Look up IC50 with mouse TRPM3α2 (mTRPM3) ion channel (Mus musculus, UniProt J9SQF3) for this compound: Cc1oc2ccc(OC(C)c3ccccc3C(F)(F)F)cc2c1C(=O)N[C@H]1CCNC1 (mixture of isomers)
output: < 1000 nM

input: Repeat with Cc1oc2ccc(OCc3ccccc3F)cc2c1C(=O)NC1(CO)CCOC1 (single isomer, unassigned) [Cpd 327-En 1]
output: < 1000 nM

input: Record: COC1CCC(NC(=O)c2c(C)oc3ccc(OCc4ccccc4)cc23)CC1 (stereo not drawn)
output: 1000 to 20000 nM

input: // next record Cc1cccc(COc2ccc3oc(C)c(C(=O)N[C@H]4CCNC4)c3c2)c1
output: < 1000 nM
